Test system: LOX IMVI melanoma
Experiment: NCI tumour cell line growth inhibition, 48 h
*1 amine or outer side, *2 acyl side, *3 side chain or, on linkers, in order; H or OH if unused. Where a SMILES comes first, the peptide text is derived from it. [ ]: non-standard residue; d: D form. ξ: configuration not given here. X21 = CC[C@@H](C)C(N[*:1])C(=O)[*:2]; ξR = N=C(N)NCCCC(N)C(=O)O; ξI = CCC(C)C(N)C(=O)O; ξL = CC(C)CC(N)C(=O)O; ξK = NCCCCC(N)C(=O)O; ξV = CC(C)C(N)C(=O)O; ξA = CC(N)C(=O)O

Molecule: Nc1ccc(Oc2ccc(C34CC5CC6C3CC3CC4C(C5)C6(c4ccc(Oc5ccc(N)c(O)c5)cc4)C3)cc2)cc1O
TGI: > 34.9 µM

Molecule: COc1ccc(-c2cc(-c3cc(F)c(Cl)cc3Cl)on2)cc1OC
TGI: > 100 µM

Molecule: COc1ccc(OC)c2c(=S)c3ccccc3[nH]c12
TGI: > 100 µM

Molecule: c1ccc(C2=NCCc3cc4c(cc32)OCO4)cc1
TGI: > 100 µM

Molecule: O=[N+]([O-])c1c2nc3n(c2cc2c1nc1n2CCC1)CCC3
TGI: > 100 µM

Molecule: COc1cc2c(cn1)[nH]c1ccccc12
TGI: > 100 µM

Molecule: c1ccc2c(c1)CC1COc3ccccc3C1O2 (stereo not drawn)
TGI: > 100 µM

Molecule: C=CCCCCCCCCCOC1C=CC(OC(C)=O)C(COC(C)=O)O1 (stereo not drawn)
TGI: > 100 µM

Molecule: C/C(=N\N=C(N)N)C(CN(C)C)C(c1ccccc1)c1c(O)c2ccccc2oc1=O (stereo not drawn)
TGI: > 100 µM

Molecule: COc1ccc(-c2csc(NC(=O)c3cc(O)c(O)c(O)c3)n2)cc1
TGI: > 33.3 µM

Molecule: C1COCCOCCOCCOCCO1.CC(=O)[CH-]C(C)=O.CC(=O)[CH-]C(C)=O.CC(=O)[CH-]C(C)=O.[V]
TGI: 29.6 µM

Molecule: Cc1ccc2c(c1)CNc1ccc(C)cc1CN2
TGI: > 100 µM

Molecule: Cc1[nH]nc2c1N=C(c1ccccc1Cl)c1cc([N+](=O)[O-])ccc1N2
TGI: > 25 µM

Molecule: CCOC(=O)CSc1[nH]c(NC(=S)Nc2ccccc2)c(C(N)=O)c1C(N)=O
TGI: > 10 µM

Molecule: N#C/C(=C\c1ccc(Br)cc1)n1nnc2ccccc21
TGI: 1.19 µM

Molecule: Clc1nc(Cl)c(CBr)c(Cl)n1
TGI: 4.14 µM

Molecule: CC(C)(C)[C@H]1CCC2(OCCO2)[C@](O)(CCCO)C1
TGI: > 100 µM

Molecule: O=C1CCCC2=C1CC1=C(CCCC1=O)N2c1ccccc1
TGI: > 100 µM

Molecule: C=C1C(=O)O[C@H]2[C@H]1CC/C(COC(=O)c1ccccc1)=C\CC[C@@]1(C)O[C@@H]21
TGI: 2.74 µM

Molecule: O=c1c2cccnc2ncn1CCN1CCCC1
TGI: > 100 µM

Molecule: CC(=O)/C=C/c1ccc(C)cc1
TGI: > 100 µM

Molecule: COc1cc(OC)c(C(=O)/C=C/c2cccc(OC(C)=O)c2)cc1CC=C(C)C
TGI: 13.1 µM

Molecule: CC/C=C/c1cc2cc[nH]c2c2c1C(C)C[C@@H]2C (stereo partly drawn)
TGI: 31 µM

Molecule: COC(=O)c1ccccc1C1CN=NC12Cc1cccc(C)c1C2=O (stereo not drawn)
TGI: > 100 µM

Molecule: Cc1cc2nc(N3C(=O)/C(=C/c4ccc(Cl)cc4)N=C3c3ccccc3)sc2cc1C
TGI: 56.2 µM

Molecule: CC(=O)OCC1OC(O/C=C(\CN=[N+]=[N-])C(C)=O)C(OC(C)=O)C(OC(C)=O)C1OC(C)=O (stereo not drawn)
TGI: 17.1 µM

Molecule: O=C(NCc1ccncc1)C1COc2cc(-c3cc(=O)c4ccccc4o3)ccc2O1 (stereo not drawn)
TGI: > 100 µM

Molecule: C(=C\c1cc(-c2ccc3ccccc3n2)nc2ccc3ccccc3c12)/c1ccc2ccccc2n1
TGI: > 100 µM

Molecule: COc1ccc(N(C)c2c3ccccc3nc3[nH]c4ccccc4c23)cc1
TGI: 1.58 µM

Molecule: CCC(C)C1NC(=O)C(CC(C)C)NC(=O)C(C)NC(=O)C(C(C)C)NC(=O)C(CCCCN)NC(=O)C(CC(C)C)NC(=O)C(C(C)C)NC(=O)[C@H](C)NC(=O)C(C(C)CC)NC(=O)C(CCCN=C(N)N)NC(=O)C(CCCCN)NC(=O)C(CCCN=C(N)N)NC(=O)C(CCCCN)NC(=O)C([C@H](C)CC)NC(=O)C(CCCCN)NC1=O (stereo partly drawn) (cyclo(A[ξV][ξL][ξK][ξV][ξA][ξL][ξI][ξK][X21][ξK][ξR][ξK][ξR][ξI]))
TGI: 3.03 µM

Molecule: COc1ccc(Oc2nc(C#CC(C)(C)O)nc(Oc3ccc(OC)cc3)n2)cc1
TGI: 3 µM

Molecule: N#Cc1c(N)nc(N2CCOCC2)c(C#N)c1-c1ccccc1Cl
TGI: > 100 µM

Molecule: Clc1c(C(Cl)(Cl)Cl)nsc1N1CCCCC1
TGI: 32.5 µM

Taken from PubChem BioAssay (NCI).
